Data provenance is ChEMBL document CHEMBL1201862.

test system: UACC-257; assay: NCI tumour cell line growth inhibition, 48 h
The source made the active and inactive calls. No stated cut-off is given here; in the data, active = GI50 up to about 1.1 µM and inactive = higher.
measured_endpoint: GI50

CC(=O)OCC(OC(C)=O)C(OC(C)=O)C(OC(C)=O)C(C=NN(C(C)=O)S(=O)(=O)c1ccc(/C=C2\NC(=O)N(C)C2=O)cc1)OC(C)=O (stereo unspecified): 43.9 µM (inactive)

In: GET /values?readout=GI50&item= `Nc1nc(O)c2nc(N)n(Cc3ccccc3)c2n1`
Out: > 100 µM (inactive)

In: # iterate: COC(=O)C1=C(O)C(C(=O)OC)[C@@]2(O)[C@@H](C(=O)OC)[C@H](C)C[C@@H]1[C@@H]2C(=O)OC (stereo partly specified)
Out: 63.1 µM (inactive)

In: # iterate: `CC1(C)CC[C@]2(C)[C@@H](O)C[C@]3(C)C(=CC[C@@H]4[C@@]5(C)CC[C@H](O)C(C)(C)[C@@H]5CC[C@]43C)[C@@H]2C1`
Out: 49.5 µM (inactive)

In: # iterate: `CC(=O)N1CC(=O)N2C(=O)/C(=C/c3ccc(Cl)cc3)N=C12`
Out: > 100 µM (inactive)

In: # iterate: `C[C@H]1[C@@H](c2ccccc2)O[B-](c2ccccc2)(c2ccccc2)[N+]1(C)C`
Out: 84.1 µM (inactive)

In: # iterate: `CCn1c(=O)c2c3ccc(OC)cc3[nH]c2c2ccc(OC)cc21`
Out: 71.3 µM (inactive)

In: # iterate: Clc1ccc(C2N3CCCCC3[C@@H]3c4[nH]c5ccccc5c4CCN23)cc1 (stereo partly specified)
Out: 83 µM (inactive)

In: # iterate: COc1cc(S(=O)(=O)Nc2ccc(-c3csc(N4C(=O)CSC4c4cccs4)n3)cc2)ccc1Cl (stereo unspecified)
Out: 20.3 µM (inactive)

In: # iterate: CC(=O)OCC1OC(n2c3c(cc(C#N)c2=S)CCC3)C(OC(C)=O)C(OC(C)=O)C1OC(C)=O (stereo unspecified)
Out: > 100 µM (inactive)

In: # iterate: N=C1N(c2ccccc2)C(=O)C23CCCC2C13N1CCOCC1 (stereo unspecified)
Out: > 100 µM (inactive)

====

tested on: RPMI-8226; experiment: NCI tumour cell line growth inhibition, 48 h
Activity calls are given as the source filed them. Cut-off read from the data, not from the text of the source: active = GI50 up to about 1.1 µM and inactive = higher.
measured_endpoint: GI50

In: GET /values?readout=GI50&item= COC(=O)C1(NC(=O)C(N)CC(=O)O)C(C)C1C (configuration not stated)
Out: > 100 µM (inactive)

In: # iterate: `O=C1c2cc3c(cc2CC12Cc1cc4c(cc1C2=O)CCCC4)CCCC3`
Out: > 100 µM (inactive)

====

tested on: HL-60; experiment: NCI tumour cell line growth inhibition, 48 h
Activity calls are given as the source filed them. Rule as the data show it: active = GI50 up to about 1.1 µM and inactive = higher.
measured_endpoint: GI50

Below are worked cases with known answers.
CC(=O)OCC1OC(n2c3c(cc(C#N)c2=S)CCC3)C(OC(C)=O)C(OC(C)=O)C1OC(C)=O (centres undefined): > 100 µM (inactive)
O=C1c2cc3c(cc2CC12Cc1cc4c(cc1C2=O)CCCC4)CCCC3: 34.9 µM (inactive)
CC(=O)O[C@H]1C#C/C=C\C#CC[C@@H]2C(=O)N(C(=O)OC(C)(C)C)[C@@H]12: 2.45 µM (inactive)
CCOC(=O)C1(C#N)OC(=O)c2cnccc21 (centres undefined): > 100 µM (inactive)
Cc1cccc(C(C)(C)C)c1NC(=O)CCl: > 100 µM (inactive)
Cc1ccc2c3c(cnc2n1)C(=O)OCCN3C: > 100 µM (inactive)
O=C1C(=O)N(C2CCCCC2)C(=S)N1C1CCCCC1: > 100 µM (inactive)
CCCn1c(SCC)c2ccccc2c1-c1nc(F)nc(F)n1: > 100 µM (inactive)
Cc1ccc(SSCCCCS(=O)O)cc1: 3.89 µM (inactive)
CCOc1ccc(Nc2nc3c(s2)C(=O)c2ccccc2C3=O)cc1: 3.19 µM (inactive)

In: GET /values?readout=GI50&item= `O=c1c2cc([N+](=O)[O-])cnc2sn1-c1ccc([N+](=O)[O-])cc1`
Out: 26 µM (inactive)

In: # iterate: CC(C)CCCC(C)[C@H]1CCC2[C@H]3C(CC[C@@]21C)[C@@]1(C)CCC=C[C@]12C[C@@H]2[C@@H]3O (some centres undefined)
Out: > 100 µM (inactive)

====

system: UACC-62; test: NCI tumour cell line growth inhibition, 48 h
Active and inactive are the calls of the source. Rule as the data show it: active = GI50 up to about 1.1 µM and inactive = higher.
Return exactly one item of active, inactive

Take a look at these entries with their results.
COc1cccc2c(N)c3cccc(C(=O)NCCN(C)C)c3nc12: active
Cc1cc(Br)cc(C)c1NC(=O)C(=O)CC(=O)c1sc(-n2nc(-c3ccccc3)cc2-c2ccccc2)nc1C: inactive
O=C(Nc1ccccc1F)c1cc2ccc(O)cc2o/c1=N\c1cccc(F)c1: inactive

In: Identify the outcome logged in this assay for the compound shown: NC(=S)NNCC(=O)CC(O)(C(F)(F)F)C(F)(F)Cl (stereo not given)
Out: inactive

In: # iterate: `CCCCC(/C=N/NC(=N)N)CC.Cc1cc(O)c(C(C)C)cc1S(=O)(=O)O`
Out: inactive

====

Reported values of GI50 for individual entries
tested on: U-251; assay: NCI tumour cell line growth inhibition, 48 h
Active and inactive are the calls of the source. No stated cut-off is given here; in the data, active = GI50 up to about 1.1 µM and inactive = higher. Where a SMILES comes first, the peptide text is derived from it. [ ]: non-standard residue; d: D form. The star is where a group is joined. Phe(4-NO2) = N[CH](Cc1ccc([N+](=O)[O-])cc1)C(=O)O; Boc = CC(C)(C)OC(=O)*; OtBu = CC(C)(C)O*

Below are worked cases with known answers.
O=[N+]([O-])c1ccc(O)c(/C=N/NC(=S)N2CCCCC2)c1: 3.53 µM (inactive)
CC(=O)/C(=C/n1ccc(=O)[nH]c1=S)C(=O)Nc1ccccc1C: > 100 µM (inactive)
C#CCN(N=O)C(=O)NCCCCC(NC(C)=O)C(=O)NCc1ccccc1 (stereo unspecified): > 100 µM (inactive)
CC(=O)NC(CCC(=O)OC(C)(C)C)C(=O)NC(CCC(=O)OC(C)(C)C)C(=O)NC(Cc1ccc([N+](=O)[O-])cc1)C(=O)NC(CCCCNC(=O)OC(C)(C)C)C(=O)NC(CCCCNC(=O)OC(C)(C)C)C(=O)NCC(=O)O (stereo unspecified) (Ac-E(OtBu)E(OtBu)[Phe(4-NO2)]K(Boc)K(Boc)G-OH; configuration not given here): > 100 µM (inactive)
O=C(Nc1ccc(Cl)cc1Cl)C1C(=O)OC2(CCCCC2)OC1=O: 5.32 µM (inactive)
O=NC1C(Cl)C2CC1C1C(Br)C(Br)CC21 (stereo unspecified): > 100 µM (inactive)
CCOC(=O)/C(C#N)=C(O)/C(=C/c1ccccc1Cl)NC(=O)c1ccccc1: > 100 µM (inactive)
COC(=O)C1(NC(=O)C(N)CC(=O)O)C(C)C1C (stereo unspecified): > 100 µM (inactive)

In: GET /values?readout=GI50&item= COC1CCC2C(=O)CCCC2O1 (stereo unspecified)
Out: > 100 µM (inactive)

In: # iterate: CCCCCCCCCCCCCCCCCCN(C)CC(COP(=O)([O-])OCC[N+](C)(C)C)OC (stereo unspecified)
Out: 4.9 µM (inactive)

In: # iterate: `O=C(O)CN1CCN2CCCCCN(CC1)CCN(CC(=O)O)CC2`
Out: > 100 µM (inactive)

====

system: SK-OV-3; assay: NCI tumour cell line growth inhibition, 48 h
Active and inactive are the calls of the source. Cut-off read from the data, not from the text of the source: active = GI50 up to about 1.1 µM and inactive = higher.
measured_endpoint: GI50

COC(=O)C1=C(O)C(C(=O)OC)[C@@]2(O)[C@@H](C(=O)OC)[C@H](C)C[C@@H]1[C@@H]2C(=O)OC (some centres undefined): 26 µM (inactive)
CCOC(=O)C1=C(C)N2CCOC2(C)C(C(=O)OC)C1c1cccc(Cl)c1 (centres undefined): > 100 µM (inactive)
CC1(C)CN=C(Nc2ccc(F)c(Cl)c2)S1: > 100 µM (inactive)

Now look at this entry.
In: GET /values?readout=GI50&item= `Cc1sccc1C(=S)Nc1ccc(Cl)c(/C=N/OC(C)(C)C)c1`
Out: 21.9 µM (inactive)

====

tested on: SN12C; test: NCI tumour cell line growth inhibition, 48 h
Calls of active or inactive are those of the source. No stated cut-off is given here; in the data, active = GI50 up to about 1.1 µM and inactive = higher.
measured_endpoint: GI50

In: GET /values?readout=GI50&item= `O[C@H]1[C@@H]2OC[C@@H](O)[C@H](OCc3ccccc3)[C@@](COCc3ccccc3)(O2)[C@@H]1OCc1ccccc1`
Out: 14.7 µM (inactive)

====

Reported values of GI50 for individual entries
test system: HCT-116; assay: NCI tumour cell line growth inhibition, 48 h
Calls of active or inactive are those of the source. Rule as the data show it: active = GI50 up to about 1.1 µM and inactive = higher.

Below are worked cases with known answers.
CN(C)CCC(=O)c1ccccc1: 28.4 µM (inactive)
C[C@H](CCC(=O)NCC(=O)O)[C@H]1CC[C@H]2[C@@H]3[C@H](O)C[C@@H]4C[C@H](O)CC[C@]4(C)[C@H]3CC[C@]12C: > 100 µM (inactive)
Cc1cc(C)c(-n2[nH]c(=O)n(C)c2=O)c(C)c1: > 100 µM (inactive)
CC(=O)OCC(OC(C)=O)C(OC(C)=O)C(OC(C)=O)C(/C=N\Nc1nc2ccccc2c(=O)[nH]1)OC(C)=O (stereo unspecified): > 100 µM (inactive)
COc1ccc(C(=O)C(C(=O)CCC(=O)Nc2cccc(Cl)c2)c2ccc(OC)cc2)cc1 (stereo unspecified): > 100 µM (inactive)
COc1cc(/C=C/c2cccnc2)cc(OC)c1OC: > 100 µM (inactive)
CC1CCC2CC1NC(=O)CCOCCC(=O)NC2(C)C (stereo unspecified): > 100 µM (inactive)
NC(=S)NNCC(=O)CC(O)(C(F)(F)F)C(F)(F)Cl (stereo unspecified): > 100 µM (inactive)
O=c1c2ccccc2c(=O)n2n1CC=CC2: > 100 µM (inactive)
CC(=O)Oc1cc(-c2oc3cc(OC(C)=O)c(C4OC(CO)C(O)C(O)C4O)c(OC(C)=O)c3c(=O)c2O)c(OC(C)=O)cc1O (stereo unspecified): > 100 µM (inactive)

Now look at this entry.
In: GET /values?readout=GI50&item= `C/C(=N\NC(=S)N1CCC(C2CCN(C(=S)N/N=C(\C)c3ccccn3)CC2)CC1)c1ccccn1`
Out: 29.2 µM (inactive)
